- System: SK-MEL-2 melanoma
- assay name: NCI-60 one-dose screen, 48 h
- measurement parameters: 10 µM unless noted
About 83,000 compounds went through this panel and 20% of them were active in at least one assay; those are over-represented in the sample as a whole. Calls of active or inactive are those of the source. The calls were made as follows: active = growth percent below 10; inactive = the rest.
Outcomes: active, inactive

{"compound": "COc1ccc(NC(=O)C(=O)c2c[nH]c3ccc(F)cc23)cc1", "category": "inactive"}
{"compound": "CN1C[C@@H](c2ccc(Cl)cc2)[C@]2(NC(=S)N(c3ccccc3)C2=O)[C@@]12C(=O)NC1C=CC(Br)=C[C@H]12 (stereo not given in full)", "category": "inactive"}
{"compound": "O=S(=O)(Cc1ccccc1)c1nc2ccccc2s1", "category": "inactive"}
{"compound": "Cc1nn(Cc2ccccc2)cc1C(=O)Nc1sc2c(c1C(N)=O)CCC(=O)C2", "category": "inactive"}
{"compound": "O=C(CC12CC3CC(CC(C3)C1)C2)NCCOCCOCCNC(=O)c1cc2c(o1)C(=O)c1ccccc1C2=O", "category": "active"}
{"compound": "Cc1cnc(Nc2ccc(OCCN3CCCC3)cc2)nc1NCc1ccco1", "category": "inactive"}
{"compound": "O=C(Oc1ccc([N+](=O)[O-])cc1)c1ccc(CBr)cc1", "category": "inactive"}
{"compound": "Cc1c(C)c2c(c(C)c1NC(=O)/C=C\\C(=O)O)CCC(C)(CCCC(C)CCCC(C)CCCC(C)C)O2 (stereo not given)", "category": "inactive"}
{"compound": "O=C(/C=C/c1ccccc1)c1ccc2ccccc2c1", "category": "inactive"}
{"compound": "Cc1cc(=O)c2cc3nc(-c4cccnc4)oc3c(Br)c2o1", "category": "inactive"}

###

- Tested on: SNB-19 CNS
- assay name: NCI-60 one-dose screen, 48 h (100 = growth as untreated, 0 = no growth, -100 = all killed)
- measurement parameters: 10 µM unless noted
This is part of a sample that, as a whole, favours compounds with a hit. Of some 83,000 tested, about 20% had one in any assay.
Parameter growth: see the listing below.
assay endpoint: growth (%)

{"molecule": "NC(N)=N/N=C/c1ccc(Br)cc1", "assay endpoint": "growth", "unit text": "%", "value measured": 35.8}
{"molecule": "O=C1c2ccccc2C2(c3ccc(O)cc3)c3ccccc3Oc3cccc1c32 (stereo not given)", "assay endpoint": "growth", "unit text": "%", "value measured": 35.6}
{"molecule": "COc1ccc(C(=O)/C=C/c2cc3c(c(OC)c2)OCC(=O)N3)cc1", "assay endpoint": "growth", "unit text": "%", "value measured": 76.1}
{"molecule": "Cl.Fc1c[c-]c(-c2ccccn2)c(F)c1.[Pt].c1ccc([PH+](c2ccccc2)c2ccccc2[PH+](c2ccccc2)c2ccccc2)cc1", "assay endpoint": "growth", "unit text": "%", "value measured": -94.9}
{"molecule": "Cc1nc(Nc2ccc(NC(=S)Nc3ccccc3)cc2)nc2nc(SCc3ccccc3)[nH]c(=O)c12", "assay endpoint": "growth", "unit text": "%", "value measured": 102}

###

- System: NCI-H226 lung
- assay name: NCI-60 one-dose screen, 48 h (100 = growth as untreated, 0 = no growth, -100 = all killed)
- measurement parameters: 10 µM unless noted
- Experimental: Growth inhibition of the NCI-H226 human Non-Small Cell Lung tumor cell line is measured as a screen for anti-cancer activity. Cells are grown in 96 well plates and exposed to the test compound for 48 hours. Compounds are tested at a single concentration, which is 10^-5 M for most compounds. The reported endpoint is percent growth (GI% or GIPRCNT), where numbers from 0 - 100% represent growth inhibition, and numbers from -100% - 0 represent cell death. […]
This is part of a sample that, as a whole, favours compounds with a hit. Of some 83,000 tested, about 20% had one in any assay.
assay endpoint: growth (%)

{"compound": "Cc1cnc(Nc2ccc(OCCN3CCCC3)cc2)nc1NCc1ccco1", "experimental target": "NCI-H226 lung", "value measured": 45.8}
{"compound": "O=C(O)c1ccc(CO)o1", "experimental target": "NCI-H226 lung", "value measured": 106}
{"compound": "Nc1ccc(-c2cc3c(Nc4ccc(OCc5cccc(F)c5)c(Cl)c4)ncnc3s2)cc1", "experimental target": "NCI-H226 lung", "value measured": 53.5}
{"compound": "Cc1nc(Nc2ccc(S(=O)(=O)Nc3cc(C)on3)cc2)c2ccccc2n1", "experimental target": "NCI-H226 lung", "value measured": 99.7}
{"compound": "CCOC(=O)C1C(=O)C=C(c2cnccn2)CC1c1ccc(OC)c(OC)c1 (stereo not given)", "experimental target": "NCI-H226 lung", "value measured": 96.1}
{"compound": "C/C(Cc1ccc(Cl)cc1)=C(/c1ccc(Cl)cc1)c1ccc(OCCN(C)C)cc1", "experimental target": "NCI-H226 lung", "value measured": 104}
{"compound": "COc1ccc(-c2nc3sc4c(c3c(=O)[nH]2)CCCC4)c2ccccc12", "experimental target": "NCI-H226 lung", "value measured": 50.8}
{"compound": "C=C1C(=O)O[C@H]2[C@H]1CC/C(Cn1cc(CNCCc3c[nH]c4ccc(Cl)cc34)nn1)=C\\CC[C@@]1(C)O[C@@H]21", "experimental target": "NCI-H226 lung", "value measured": 91.1}
{"compound": "Nc1c(C(=O)Nc2ccccc2)sc2nc3c(cc12)CCCCCC3", "experimental target": "NCI-H226 lung", "value measured": 27}
{"compound": "NC(=S)N/N=C/C(=O)O", "experimental target": "NCI-H226 lung", "value measured": 96.2}
{"compound": "CC(c1ccc(-n2cccn2)cc1)c1cnc(N2CCc3ccc(C(N)=O)cc3C2)s1 (stereo not given)", "experimental target": "NCI-H226 lung", "value measured": 43.6}
{"compound": "CCOC(=O)c1c(C)[nH]c(C(=O)CCC(=O)OC)c1C", "experimental target": "NCI-H226 lung", "value measured": 95.8}
{"compound": "O=c1cc(-c2ccc(OCc3ccccc3)cc2)oc2c(I)c(OCc3ccccc3)cc(OCc3ccccc3)c12", "experimental target": "NCI-H226 lung", "value measured": 90}
{"compound": "Nc1nc(N)c(-c2ccc(Cl)cc2)c(/C=C/c2ccc([N+](=O)[O-])cc2)n1", "experimental target": "NCI-H226 lung", "value measured": 91.4}
{"compound": "COc1c(C)cnc(CSc2nc(-c3ccc(C)cc3)cn2-c2ccc(Cl)cc2)c1C", "experimental target": "NCI-H226 lung", "value measured": 102}
{"compound": "CCOC(=O)c1ccc(NC(=O)CCCN(CC)CC)cc1", "experimental target": "NCI-H226 lung", "value measured": 103}
{"compound": "O=C(CCl)N1c2cccc3cccc(c23)N(C(=O)CCl)C1c1cn(-c2ccccc2)nc1-c1cccc([N+](=O)[O-])c1", "experimental target": "NCI-H226 lung", "value measured": 98.8}
{"compound": "CC1=CC(=O)C(C(C)C)=CC1=Nc1cc(Br)c(O)c(Br)c1", "experimental target": "NCI-H226 lung", "value measured": 84.1}
{"compound": "Cc1nn(Cc2ccccc2)cc1C(=O)Nc1sc2c(c1C(N)=O)CCC(=O)C2", "experimental target": "NCI-H226 lung", "value measured": 71.9}
{"compound": "COc1cc(-c2cc(-c3ccc(Nc4nc(Nc5ccccc5)nc(Nc5ccc(Cl)cc5)n4)cc3)nc(N)n2)cc(OC)c1OC", "experimental target": "NCI-H226 lung", "value measured": 75.6}

###

- System: T-47D breast
- assay name: NCI-60 one-dose screen, 48 h
- measurement parameters: 10 µM unless noted
The panel holds about 83,000 compounds, 20% with a hit somewhere; the sample as a whole holds those more often. Calls of active or inactive are those of the source. How the source made its calls: active means growth percent below 10; inactive means the rest.
Outcomes: active, inactive

{"compound string": "Nc1ccc2c(S(=O)(=O)O)ccc(S(=O)(=O)O)c2c1", "category": "inactive"}
{"compound string": "O=C(Nc1ccccn1)[C@H](O)[C@@H](O)C(=O)N1CCOCC1", "category": "inactive"}
{"compound string": "Cc1cc(-c2ccccc2)cc(SC#N)[n+]1[O-]", "category": "inactive"}
{"compound string": "CNC(=O)c1cc(Oc2ccc3nc(NC(=O)Nc4cc(C(F)(F)F)cc(C(F)(F)F)c4)sc3c2)ccn1", "category": "active"}
{"compound string": "C=C1C(=O)O[C@H]2[C@H]1CC/C(C(=O)NCCCCCCCCNC(=O)/C1=C/CC[C@@]3(C)O[C@H]3[C@H]3OC(=O)C(=C)[C@@H]3CC1)=C\\CC[C@@]1(C)O[C@@H]21", "category": "inactive"}
{"compound string": "CCCCCCNc1cc(C)nc2ccc(OC)cc12", "category": "inactive"}
{"compound string": "CN(C)CCn1cc(-c2ccc3c(Nc4ccc(CC(=O)Nc5cccc(F)c5)cc4)ncnc3c2)cn1", "category": "active"}
{"compound string": "Cc1cc(=O)c2cc3nc(-c4cccnc4)oc3c(Br)c2o1", "category": "inactive"}
{"compound string": "CCCN1CCN(c2ccc3nc(-c4ccc5nc(-c6cc(OC)c(OC)c(OC)c6)[nH]c5c4)[nH]c3c2)CC1", "category": "inactive"}
